- Test Description: Pharmacokinetics in mice plasma following oral administration
- Assay type: in vivo, CD-1 mice
- Run Parameters: male, CD-1, mouse, mice plasma, dose 10 mg/kg, read-out: T½ (converted)
Classify by measured half-life: condition met if it is equal to or exceeds 2 h, condition not met if it is smaller.

stdin: Evaluate `CC(C)N1CCCc2c(-c3nc(N[C@H]4CCC(C)(C)NC4)ncc3C(F)(F)F)c[nH]c2C1=O` : half-life at minimum 2 h?
stdout: condition met

stdin: Evaluate `CC(C)N1CCCc2c(-c3nc(N[C@H]4CCC5(CC5)NC4)ncc3C(F)(F)F)c[nH]c2C1=O` : half-life at minimum 2 h?
stdout: condition met

stdin: Evaluate `CN1CCCc2c(-c3nc(N[C@H]4CCC(C)(C)NC4)ncc3C(F)(F)F)c[nH]c2C1=O` : half-life at minimum 2 h?
stdout: condition not met

stdin: Evaluate `CC1(C)CC[C@H](Nc2ncc(C(F)(F)F)c(-c3c[nH]c4c3CCCN(C3CC3)C4=O)n2)CN1` : half-life at minimum 2 h?
stdout: condition not met

----------
- Test Description: Pharmacokinetics in mice plasma following intravenous administration
- Type: in vivo, CD-1 mice
- Run Parameters: male, CD-1, mouse, dose 1 mg/kg, read-out: T½ (converted)
Observable: half-life (h)
Please give a number only; it is taken to be in h.

Entry `CC(C)N1CCCc2c(-c3nc(N[C@H]4CCC5(CC5)NC4)ncc3C(F)(F)F)c[nH]c2C1=O` ; half-life = 2.1

----------
- Test Description: Blood-brain barrier permeability: PK in mice brain homogenate following oral administration
- Assay type: in vivo, CD-1 mice
- Run Parameters: male, CD-1, mouse, brain homogenate / plasma, mice, dose 10 mg/kg, read-out: AUCbrain/AUCplasma
Observable: Kp
Form field (numeric): enter value without unit.

Entry `O=C1c2[nH]cc(-c3nc(N[C@H]4CCC5(CC5)NC4)ncc3C(F)(F)F)c2CCCN1C1CC1` ; Kp = 0.243

Entry `CC1(C)CC[C@H](Nc2ncc(C(F)(F)F)c(-c3c[nH]c4c3CCCN(C3CC3)C4=O)n2)CN1` ; Kp = 0.165

Entry `CC(C)N1CCCc2c(-c3nc(N[C@H]4CCC(C)(C)NC4)ncc3C(F)(F)F)c[nH]c2C1=O` ; Kp = 0.182

Entry `CC(C)N1CCCc2c(-c3nc(N[C@H]4CCC5(CC5)NC4)ncc3C(F)(F)F)c[nH]c2C1=O` ; Kp = 0.302

----------
- Tested System: CDK9/Cyclin K (Homo sapiens)
- Sequence (P50750 whole entry): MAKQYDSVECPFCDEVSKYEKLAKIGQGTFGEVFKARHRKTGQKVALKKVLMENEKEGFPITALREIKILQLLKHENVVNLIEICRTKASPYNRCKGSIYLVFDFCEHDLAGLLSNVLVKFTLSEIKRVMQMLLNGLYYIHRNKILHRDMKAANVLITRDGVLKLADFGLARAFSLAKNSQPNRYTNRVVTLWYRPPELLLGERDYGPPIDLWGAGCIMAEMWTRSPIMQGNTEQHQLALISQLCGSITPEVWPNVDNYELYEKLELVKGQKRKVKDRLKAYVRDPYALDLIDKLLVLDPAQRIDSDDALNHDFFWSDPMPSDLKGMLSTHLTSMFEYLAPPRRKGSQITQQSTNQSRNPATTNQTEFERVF
- Sequence (O75909 whole entry partner): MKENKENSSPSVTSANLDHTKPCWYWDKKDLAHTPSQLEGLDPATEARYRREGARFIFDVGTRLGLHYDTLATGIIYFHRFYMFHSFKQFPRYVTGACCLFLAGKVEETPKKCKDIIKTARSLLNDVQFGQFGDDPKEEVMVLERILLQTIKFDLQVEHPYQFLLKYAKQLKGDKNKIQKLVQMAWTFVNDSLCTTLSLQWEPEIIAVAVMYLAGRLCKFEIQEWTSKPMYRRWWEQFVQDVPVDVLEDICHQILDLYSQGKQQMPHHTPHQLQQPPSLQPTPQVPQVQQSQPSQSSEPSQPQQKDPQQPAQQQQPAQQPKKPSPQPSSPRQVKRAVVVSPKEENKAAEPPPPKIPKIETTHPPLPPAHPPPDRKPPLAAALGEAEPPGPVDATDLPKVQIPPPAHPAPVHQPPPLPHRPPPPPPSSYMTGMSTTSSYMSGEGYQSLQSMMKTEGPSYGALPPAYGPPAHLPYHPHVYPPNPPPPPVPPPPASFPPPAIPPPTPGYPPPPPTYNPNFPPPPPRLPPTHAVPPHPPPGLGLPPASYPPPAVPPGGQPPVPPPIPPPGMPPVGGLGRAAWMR
- Test Description: Inhibition of CDK9/Cyclin K kinase activity (ADP-Glo)
- Type: biochemical
- Run Parameters: mean of multiple measurement series; ATP 50 μM; read-out: CDK9/Cyclin K IC50
Observable: pIC50
Remember, pIC50 is on a log scale: it is -log10 of the molar concentration.

The recorded pIC50 with CDK9/Cyclin K (Homo sapiens) for `Cn1cc(-n2ccc3c(-c4nc(N[C@H]5CCCNC5)ncc4C(F)(F)F)c[nH]c3c2=O)ccc1=O` was 6.32

The recorded pIC50 with CDK9/Cyclin K (Homo sapiens) for `CC1(C)CC[C@H](Nc2ncc(C(F)(F)F)c(-c3c[nH]c4c3CCCN(C3CC3)C4=O)n2)CN1` was 6.36

The recorded pIC50 with CDK9/Cyclin K (Homo sapiens) for `CN1CCCc2c(-c3nc(N[C@H]4CCCNC4)ncc3C(F)(F)F)c[nH]c2C1=O` was 7.22
